Hey, just so you know, these numbers are from patent US12559490B2.

Below: a set of entries, each annotated with reported Conc..
assay: Solubility testing in a polyethylene glycol/transcutol/ethanol/DMSO formulation; format: physicochemical; settings: concentration tested in formulation of about 25-75% polyethylene glycol, 5-20% transcutol, 5-50% ethanol, 5-10% DMSO; room temperature; Notes column says whether it dissolved
Attribute measured: Conc.

# Compound, Measured
data = [
    ("N#C/C(=C\\c1cn(Cc2cccc(F)c2)c2ncccc12)C(=O)O", "0.1% w/w"),
    ("N#C/C(=C\\c1cn(Cc2ccccc2F)c2ncccc12)C(=O)O", "0.1% w/w"),
    ("N#C/C(=C\\c1cn(Cc2ccccc2C(F)(F)F)c2ncccc12)C(=O)O", "0.1% w/w"),
    ("N#C/C(=C\\c1cn(Cc2cccc(C(F)(F)F)c2)c2ncccc12)C(=O)O", "0.15% w/w"),
    ("N#C/C(=C\\c1cn(Cc2cc(C(F)(F)F)cc(C(F)(F)F)c2)c2ncccc12)C(=O)O [JXL069, reference compound]", "0.027% w/w"),
]

###

molecular target: Mitochondrial Pyruvate Carrier (MPC) (Homo sapiens, UniProt O95563+Q9Y5U8); assay: Pyruvate-driven respiration (OCR, XF96) in permeabilized HepG2 cells to test MPC; details: pyruvate/malate substrate, nine-point dose-response, 1 or 3 replicates
Sequence (Q9Y5U8 whole entry): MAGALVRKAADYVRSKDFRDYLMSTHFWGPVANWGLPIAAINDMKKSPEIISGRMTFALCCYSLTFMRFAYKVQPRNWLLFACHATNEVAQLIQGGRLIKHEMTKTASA
Sequence (O95563 whole entry): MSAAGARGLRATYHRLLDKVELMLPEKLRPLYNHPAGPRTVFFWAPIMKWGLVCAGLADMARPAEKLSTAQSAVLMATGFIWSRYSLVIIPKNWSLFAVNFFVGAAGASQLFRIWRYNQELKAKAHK
pIC50: −log10 of the molar value.
Threshold check on pIC50: at or above 7 gives Condition met, strictly below gives Condition not met.

# Compound, Assigned category
measured = [
    ("N#C/C(=C\\c1cn(Cc2cc(C(F)(F)F)cc(C(F)(F)F)c2)c2ncccc12)C(=O)O [JXL069, reference compound]", "Condition met"),
    ("N#C/C(=C\\c1cn(Cc2ccccn2)c2ncccc12)C(=O)O [PP38]", "Condition not met"),
    ("N#C/C(=C\\c1cn(Cc2ccccc2C(F)(F)F)c2ncccc12)C(=O)O [PP26]", "Condition met"),
    ("N#C/C(=C\\c1cn(Cc2cccc(C(F)(F)F)c2)c2ncccc12)C(=O)O [PP27]", "Condition met"),
    ("N#C/C(=C\\c1cn(Cc2ccccc2F)c2ncccc12)C(=O)O [PP35]", "Condition met"),
    ("N#C/C(=C\\c1cn(Cc2cccnc2)c2ncccc12)C(=O)O [PP39]", "Condition not met"),
    ("N#C/C(=C\\c1cn(Cc2ccncc2)c2ncccc12)C(=O)O [PP40]", "Condition not met"),
    ("N#C/C(=C\\c1cn(Cc2cccc(F)c2)c2ncccc12)C(=O)O [PP36]", "Condition met"),
]
